Sequence of the target: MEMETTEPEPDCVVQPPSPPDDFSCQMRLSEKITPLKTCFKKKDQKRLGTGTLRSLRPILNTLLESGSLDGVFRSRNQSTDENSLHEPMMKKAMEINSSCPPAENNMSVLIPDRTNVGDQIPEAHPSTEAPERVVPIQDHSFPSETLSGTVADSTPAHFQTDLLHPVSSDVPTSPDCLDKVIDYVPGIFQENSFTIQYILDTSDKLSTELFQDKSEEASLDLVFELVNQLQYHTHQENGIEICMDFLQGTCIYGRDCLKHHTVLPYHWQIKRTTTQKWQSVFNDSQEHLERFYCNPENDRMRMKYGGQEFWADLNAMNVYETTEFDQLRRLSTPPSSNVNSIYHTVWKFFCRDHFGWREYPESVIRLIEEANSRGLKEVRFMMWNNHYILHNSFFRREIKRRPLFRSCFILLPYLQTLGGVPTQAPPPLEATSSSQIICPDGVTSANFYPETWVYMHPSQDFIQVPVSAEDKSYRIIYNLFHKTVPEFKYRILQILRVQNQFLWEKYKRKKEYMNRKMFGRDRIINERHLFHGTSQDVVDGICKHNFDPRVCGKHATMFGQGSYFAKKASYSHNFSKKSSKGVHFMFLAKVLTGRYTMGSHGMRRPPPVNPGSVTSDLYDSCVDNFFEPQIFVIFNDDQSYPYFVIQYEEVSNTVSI
readout.label: pIC50
Value format note: pIC50 is -log10 of concentration (mol/L); just state the number.

Tell me pIC50 reported for C[C@@H]1COCCN1c1cc(CNC(=O)c2ccc(C(=O)N3CCN(C(=O)c4cc(Cc5n[nH]c(=O)c6ccccc56)ccc4F)CC3)cc2)nc(-c2ccnc3[nH]ccc23)n1 7.55

====

target.of.assay: DNA‐PK (Homo sapiens, UniProt P78527)
readout.label: IC50

Provide the reported IC50 (system: DNA‐PK (Homo sapiens, UniProt P78527)) for C[C@@H]1COCCN1c1cc(CNC(=O)c2ccc(C(=O)N3CCN(C(=O)c4cc(Cc5n[nH]c(=O)c6ccccc56)ccc4F)CC3)cc2)nc(-c2ccnc3[nH]ccc23)n1 [Compound B8] > 5 µM

====

As an illustration, consider measured IC50 for molecules on ATR (Homo sapiens, UniProt Q13535).
Sequence (Q13535 whole entry): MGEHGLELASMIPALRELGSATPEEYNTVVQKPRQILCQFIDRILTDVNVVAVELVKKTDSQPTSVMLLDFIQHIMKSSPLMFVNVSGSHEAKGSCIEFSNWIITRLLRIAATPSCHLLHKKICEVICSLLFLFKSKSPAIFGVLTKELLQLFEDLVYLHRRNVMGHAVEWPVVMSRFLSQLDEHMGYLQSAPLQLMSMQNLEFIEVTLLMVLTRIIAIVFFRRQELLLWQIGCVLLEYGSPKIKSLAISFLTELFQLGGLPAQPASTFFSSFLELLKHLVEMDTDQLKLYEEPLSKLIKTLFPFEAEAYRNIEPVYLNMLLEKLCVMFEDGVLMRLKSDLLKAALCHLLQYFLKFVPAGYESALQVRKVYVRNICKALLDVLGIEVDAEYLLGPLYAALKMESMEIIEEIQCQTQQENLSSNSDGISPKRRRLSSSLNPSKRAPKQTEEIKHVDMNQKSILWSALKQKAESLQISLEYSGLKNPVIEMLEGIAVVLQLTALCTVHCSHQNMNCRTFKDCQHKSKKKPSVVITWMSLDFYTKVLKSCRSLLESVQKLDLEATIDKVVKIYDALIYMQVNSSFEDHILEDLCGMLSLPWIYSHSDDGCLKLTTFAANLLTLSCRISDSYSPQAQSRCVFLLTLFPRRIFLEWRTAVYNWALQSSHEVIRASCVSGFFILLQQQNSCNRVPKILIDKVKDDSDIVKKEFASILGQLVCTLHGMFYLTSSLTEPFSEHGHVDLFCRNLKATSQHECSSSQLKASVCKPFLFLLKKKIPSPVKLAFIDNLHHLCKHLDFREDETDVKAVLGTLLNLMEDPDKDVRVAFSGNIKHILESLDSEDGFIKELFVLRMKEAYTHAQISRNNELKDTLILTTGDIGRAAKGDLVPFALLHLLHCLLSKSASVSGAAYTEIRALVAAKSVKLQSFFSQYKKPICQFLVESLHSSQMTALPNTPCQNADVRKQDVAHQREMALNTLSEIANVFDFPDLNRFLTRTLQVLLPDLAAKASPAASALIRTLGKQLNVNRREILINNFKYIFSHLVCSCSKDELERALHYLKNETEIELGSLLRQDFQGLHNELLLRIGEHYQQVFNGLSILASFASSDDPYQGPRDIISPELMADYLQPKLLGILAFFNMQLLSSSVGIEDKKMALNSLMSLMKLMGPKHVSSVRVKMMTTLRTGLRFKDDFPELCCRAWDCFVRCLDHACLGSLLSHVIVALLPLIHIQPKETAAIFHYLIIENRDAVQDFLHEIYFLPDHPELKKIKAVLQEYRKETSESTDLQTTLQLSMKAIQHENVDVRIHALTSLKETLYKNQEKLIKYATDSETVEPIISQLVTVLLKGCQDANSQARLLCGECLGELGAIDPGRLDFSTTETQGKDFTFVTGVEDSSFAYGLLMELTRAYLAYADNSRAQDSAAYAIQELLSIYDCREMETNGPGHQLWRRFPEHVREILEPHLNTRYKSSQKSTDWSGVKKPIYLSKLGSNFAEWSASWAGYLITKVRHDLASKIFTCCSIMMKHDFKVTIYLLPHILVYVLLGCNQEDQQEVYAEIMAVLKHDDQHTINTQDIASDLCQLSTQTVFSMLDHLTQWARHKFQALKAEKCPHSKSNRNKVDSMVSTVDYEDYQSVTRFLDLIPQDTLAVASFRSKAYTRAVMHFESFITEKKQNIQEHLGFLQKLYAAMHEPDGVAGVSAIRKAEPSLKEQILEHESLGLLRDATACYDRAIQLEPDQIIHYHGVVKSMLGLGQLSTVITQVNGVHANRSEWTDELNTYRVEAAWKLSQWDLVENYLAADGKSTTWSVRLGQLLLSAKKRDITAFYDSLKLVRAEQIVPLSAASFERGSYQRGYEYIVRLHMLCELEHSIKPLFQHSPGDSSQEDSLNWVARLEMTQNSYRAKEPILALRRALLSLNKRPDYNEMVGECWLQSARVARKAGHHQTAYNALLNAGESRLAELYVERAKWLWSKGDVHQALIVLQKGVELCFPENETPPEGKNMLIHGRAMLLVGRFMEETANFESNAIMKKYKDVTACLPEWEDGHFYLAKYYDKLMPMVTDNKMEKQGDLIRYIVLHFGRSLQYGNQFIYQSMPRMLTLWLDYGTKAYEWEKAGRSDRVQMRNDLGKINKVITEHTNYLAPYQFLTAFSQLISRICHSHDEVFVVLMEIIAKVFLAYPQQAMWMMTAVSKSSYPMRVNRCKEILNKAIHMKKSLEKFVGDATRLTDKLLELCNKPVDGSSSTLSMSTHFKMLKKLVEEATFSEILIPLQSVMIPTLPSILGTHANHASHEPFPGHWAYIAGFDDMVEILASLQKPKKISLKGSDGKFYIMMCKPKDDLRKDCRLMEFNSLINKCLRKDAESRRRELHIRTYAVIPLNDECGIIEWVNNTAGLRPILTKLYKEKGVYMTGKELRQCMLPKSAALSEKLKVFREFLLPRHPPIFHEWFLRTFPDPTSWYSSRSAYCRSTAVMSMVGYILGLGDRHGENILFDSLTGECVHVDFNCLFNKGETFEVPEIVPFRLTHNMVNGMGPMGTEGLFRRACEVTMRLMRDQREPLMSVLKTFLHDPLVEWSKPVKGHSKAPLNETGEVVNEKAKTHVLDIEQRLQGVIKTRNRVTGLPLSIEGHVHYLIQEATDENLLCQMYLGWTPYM
Sequence (Q8WXE1 whole entry partner): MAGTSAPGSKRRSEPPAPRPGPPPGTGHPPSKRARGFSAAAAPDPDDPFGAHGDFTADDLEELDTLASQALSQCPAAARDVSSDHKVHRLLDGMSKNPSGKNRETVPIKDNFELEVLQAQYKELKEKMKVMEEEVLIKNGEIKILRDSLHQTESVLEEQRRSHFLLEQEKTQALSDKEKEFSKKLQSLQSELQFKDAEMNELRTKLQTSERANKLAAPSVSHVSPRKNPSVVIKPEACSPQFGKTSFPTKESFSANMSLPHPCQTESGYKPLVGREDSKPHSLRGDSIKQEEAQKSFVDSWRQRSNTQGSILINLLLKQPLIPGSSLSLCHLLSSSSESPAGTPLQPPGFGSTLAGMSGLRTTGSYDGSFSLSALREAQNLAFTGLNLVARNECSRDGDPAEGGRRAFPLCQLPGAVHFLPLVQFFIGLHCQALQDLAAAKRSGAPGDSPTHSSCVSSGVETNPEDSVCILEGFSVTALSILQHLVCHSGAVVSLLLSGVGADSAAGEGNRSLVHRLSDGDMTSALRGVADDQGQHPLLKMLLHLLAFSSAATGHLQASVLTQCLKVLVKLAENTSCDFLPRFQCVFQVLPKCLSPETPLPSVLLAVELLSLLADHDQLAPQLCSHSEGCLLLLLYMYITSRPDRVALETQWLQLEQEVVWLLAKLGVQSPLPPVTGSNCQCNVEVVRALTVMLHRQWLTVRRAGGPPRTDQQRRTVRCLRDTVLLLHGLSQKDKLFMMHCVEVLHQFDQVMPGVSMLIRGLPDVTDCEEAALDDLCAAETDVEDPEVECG
Please respond with the number in nM and leave the unit unwritten.

These solved cases illustrate the format of a correct answer.
> print(dat)
                               smiles.input  test.value
1  C[C@@H]1COCCN1c1cc(CNC(=O)c2ccc(C(=O)N3CCN(C(=O)c4cc(Cc5n[nH]c(=O)c6ccccc56)ccc4F)CC3)cc2)nc(-c2ccnc3[nH]ccc23)n1        17.3
2  C[C@@H]1COCCN1c1cc(C2(NC(=O)c3ccc(N4CCN(C(=O)c5cc(Cc6n[nH]c(=O)c7ccccc67)ccc5F)CC4)cc3)CC2)nc(-c2ccnc3[nH]ccc23)n1         292

Now, please, on to the next molecule.
Answer with IC50 of C[C@@H]1COCCN1c1cc(CNC(=O)N2CCN(C(=O)c3cc(Cc4n[nH]c(=O)c5ccccc45)ccc3F)CC2)nc(-c2ccnc3[nH]ccc23)n1 measured for ATR (Homo sapiens, UniProt Q13535). 78.8

====

pIC50 values recorded for UniProt P09874
Sequence (P09874 whole entry): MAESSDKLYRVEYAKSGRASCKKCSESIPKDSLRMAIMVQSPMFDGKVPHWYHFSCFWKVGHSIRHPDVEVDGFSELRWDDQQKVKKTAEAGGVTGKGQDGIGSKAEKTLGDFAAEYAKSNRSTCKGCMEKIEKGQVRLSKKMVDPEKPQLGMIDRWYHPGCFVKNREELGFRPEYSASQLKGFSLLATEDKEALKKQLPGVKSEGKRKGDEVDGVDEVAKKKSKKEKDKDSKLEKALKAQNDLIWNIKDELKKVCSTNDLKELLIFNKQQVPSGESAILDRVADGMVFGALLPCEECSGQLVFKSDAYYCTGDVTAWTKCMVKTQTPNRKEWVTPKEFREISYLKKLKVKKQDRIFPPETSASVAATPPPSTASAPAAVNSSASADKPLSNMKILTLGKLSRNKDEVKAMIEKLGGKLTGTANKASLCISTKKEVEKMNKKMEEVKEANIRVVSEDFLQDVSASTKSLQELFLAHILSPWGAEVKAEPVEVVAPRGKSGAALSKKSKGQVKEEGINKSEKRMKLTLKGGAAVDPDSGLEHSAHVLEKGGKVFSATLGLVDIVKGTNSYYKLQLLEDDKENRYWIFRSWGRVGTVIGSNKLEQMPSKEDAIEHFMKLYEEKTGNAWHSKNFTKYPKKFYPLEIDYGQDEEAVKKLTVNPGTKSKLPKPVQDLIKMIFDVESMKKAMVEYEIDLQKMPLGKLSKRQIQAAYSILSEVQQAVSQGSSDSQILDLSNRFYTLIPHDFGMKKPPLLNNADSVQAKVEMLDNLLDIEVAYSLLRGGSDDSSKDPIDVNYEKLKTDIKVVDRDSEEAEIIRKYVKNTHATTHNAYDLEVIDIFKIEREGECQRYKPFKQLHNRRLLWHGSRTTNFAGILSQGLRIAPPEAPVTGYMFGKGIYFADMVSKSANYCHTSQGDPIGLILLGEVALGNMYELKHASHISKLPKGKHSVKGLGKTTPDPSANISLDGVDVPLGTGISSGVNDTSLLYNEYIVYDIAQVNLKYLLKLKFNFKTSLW
Lab note: report pIC50 as minus log10 of the concentration in molar units, number only.

Return value of pIC50 for input C[C@@H]1COCCN1c1cc(C2(NC(=O)c3ccc(CN4CCN(C(=O)c5cc(Cc6n[nH]c(=O)c7ccccc67)ccc5F)CC4)cc3)CC2)nc(-c2ccnc3[nH]ccc23)n1 , no commentary. 7.71

Report measured pIC50; entry is C[C@@H]1COCCN1c1cc(CNC(=O)c2ccc(C(=O)N3CCN(C(=O)c4cc(Cc5n[nH]c(=O)c6ccccc56)ccc4F)CC3)cn2)nc(-c2ccnc3[nH]ccc23)n1 9.00

Using known records, supply pIC50 for C[C@@H]1COCCN1c1cc(C2(NC(=O)c3cnc(N4CCN(C(=O)c5cc(Cc6n[nH]c(=O)c7ccccc67)ccc5F)CC4)nc3)CC2)nc(-c2ccnc3[nH]ccc23)n1 8.77

Give the measured pIC50 for C[C@@H]1COCCN1c1cc(CNC(=O)CCNC(=O)c2cc(Cc3n[nH]c(=O)c4ccccc34)ccc2F)nc(-c2ccnc3[nH]ccc23)n1 8.02

Supply pIC50 value. Item: C[C@@H]1COCCN1c1cc(C2(NC(=O)c3cc(Cc4n[nH]c(=O)c5ccccc45)ccc3F)CC2)nc(-c2ccnc3[nH]ccc23)n1 5.94

Give the reported pIC50 for this molecule. C[C@@H]1COCCN1c1cc(CNC(=O)c2ccc(CN3CCN(C(=O)c4cc(Cc5n[nH]c(=O)c6ccccc56)ccc4F)CC3)cc2)nc(-c2ccnc3[nH]ccc23)n1 8.70
